Data origin, for the record: PubChem BioAssay AID1851

- test.system: Cytochrome P450 2C19 (Homo sapiens) (UniProt P33261)
- Sequence (P33261 whole entry, looked up): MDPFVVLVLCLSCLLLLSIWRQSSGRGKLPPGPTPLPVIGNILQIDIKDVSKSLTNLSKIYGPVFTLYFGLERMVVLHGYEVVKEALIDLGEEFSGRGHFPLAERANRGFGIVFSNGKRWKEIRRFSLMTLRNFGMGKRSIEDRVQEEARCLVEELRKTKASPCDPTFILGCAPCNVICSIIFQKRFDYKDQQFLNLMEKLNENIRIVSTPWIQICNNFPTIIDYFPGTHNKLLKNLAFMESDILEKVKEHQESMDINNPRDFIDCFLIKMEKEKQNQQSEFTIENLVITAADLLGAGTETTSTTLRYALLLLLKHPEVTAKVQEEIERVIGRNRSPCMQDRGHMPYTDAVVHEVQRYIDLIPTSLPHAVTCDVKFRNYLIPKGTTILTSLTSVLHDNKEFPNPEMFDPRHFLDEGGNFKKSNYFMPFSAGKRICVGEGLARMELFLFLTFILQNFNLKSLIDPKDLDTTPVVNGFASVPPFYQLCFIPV
- assay.details: Cytochrome panel assay with activity outcomes; note: % is set by controls: 0 for no effect and ±100 for the full control effect
- assay.setup: recombinant CYP, pro-luciferin dealkylation, luminescence, p450-cyp2c19; series mostly up to 57.1 µM
Out of some 16,000 compounds screened, about 5,800 (36%) were called active. About 23% were inconclusive and are not listed. Some of the results follow.
property.name: activity, negative = inhibition

{"compound": "N=C(N)SCc1cccc(-c2nc3ccccc3c(=O)o2)c1", "observed.value": "16.9% [at 11.4 µM] (inactive)"}
{"compound": "CN(C)CCn1c(CO)nc2c1c(=O)n(C)c(=O)n2C", "observed.value": "29.8% [at 11.4 µM] (inactive)"}
{"compound": "CN(C)[C@H]1C(=O)C(C(=O)NCN2CCCC2)=C(O)[C@]2(O)C(=O)C3=C(O)c4c(O)cccc4[C@](C)(O)[C@H]3C[C@H]12", "observed.value": "-26.1% [at 11.4 µM] (inactive)"}
{"compound": "O=C(O)c1[nH]c2c([N+](=O)[O-])cc([N+](=O)[O-])cc2c1C(=O)O", "observed.value": "39.2% [at 11.4 µM] (inactive)"}
{"compound": "c1ccc2c[n+](Cc3ccnc4ccccc34)ccc2c1", "observed.value": "10.8% [at 11.4 µM] (inactive)"}
{"compound": "O=C(O)[C@@H]1[C@H](C(=O)O)[C@H]2C(=O)C=C[C@H]1N2Cc1ccccc1", "observed.value": "2.25% [at 11.4 µM] (inactive)"}
{"compound": "CN(C)CCNc1nc2c(c(=O)n(C)c(=O)n2C)n1C", "observed.value": "-4.31% [at 11.4 µM] (inactive)"}
{"compound": "CC(C)[C@H](NC(=O)OC(C)(C)C)[C@@H](O)CC(=O)OC(C)(C)C", "observed.value": "-17.9% [at 11.4 µM] (inactive)"}
{"compound": "C/C=C\\C1=C(CO)C(=O)C2O[C@]2(CC=C(C)C)C1=O (stereo partly specified)", "observed.value": "-25.8% [at 11.4 µM] (inactive)"}
{"compound": "Nc1nc(N)c2nn(-c3ccc(C(=O)O)cc3)nc2n1", "observed.value": "19.9% [at 11.4 µM] (inactive)"}
{"compound": "CN(C)CCNS(=O)(=O)N(C)C", "observed.value": "0.116% [at 11.4 µM] (inactive)"}
